Reference source for all entries: PubChem BioAssay AID2060511

- Test system: 422866-222-R5-J1-PDC spheroids with HUVEC/MSC, viability;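 note: spheroids exposed to compounds for seven days before reading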
- protocol notes: Anticancer human tumor 422866-222-R5-J1-PDC patient-derived pancreatic adenocarcinoma cell line growth inhibition [GQUAD]
- conditions used: curve of first compound; second compound 3.16 µM
- Source text: DNA G-quadruplex Stabilizer Agents in Combinations in Complex Spheroids A high-throughput screen of multi-cell type tumor spheroids was designed to identify active combinations of DNA G-quadruplex stabilizer agents and targeted small molecules. […] Compounds. […] If the clinical Cmax for an agent had not been determined, the highest concentration tested was 10 microM. […]
pIC50: −log10 of the molar value.
Decision: pIC50 >= 6 yields condition met, all other cases yield condition not met.

Request: # check: pIC50 of C=CCn1c(=O)c2cnc(Nc3ccc(N4CCN(C)CC4)cc3)nc2n1-c1cccc(C(C)(C)O)n1 + Cc1cnc(CNC(=O)c2c(=O)c3ccc(N4CCCN(C)CC4)nc3n3c2sc2ccccc23)cn1 is greater than or equal to 6
Result: condition not met

Request: Exam item: decide whether the reported pIC50 for CC(C)(O)C1CCC(Nc2ccc3ncc(-c4cccc(C(F)(F)F)c4)n3n2)CC1 (stereo unspecified) + Cc1[nH]c2ccc(F)cc2c1-c1nc2c3cccnc3c3ncccc3c2[nH]1 is at least 6.
Result: condition met

Request: Is it the case that CCc1c2c(nc3ccc(O)cc13)-c1cc3c(c(=O)n1C2)COC(=O)[C@]3(O)CC + CN(C)c1ccc(Nc2c3ccc(NC(=O)CCN4CCCC4)cc3nc3cc(NC(=O)CCN4CCCC4)ccc23)cc1 has pIC50 reaching or exceeding 6?
Result: condition met

Request: API: above_or_equal(metric=pIC50, cutoff=6) for item COc1cc(C2c3cc4c(cc3C(OC3OC5COC(C)OC5C(O)C3O)C3COC(=O)C23)OCO4)cc(OC)c1O (stereo unspecified) + CN(C)c1ccc(Nc2c3ccc(NC(=O)CCN4CCCC4)cc3nc3cc(NC(=O)CCN4CCCC4)ccc23)cc1
Result: condition not met

Request: Given COc1ncnc(C2CC2)c1-c1ncc2cnn(Cc3ccc(-c4nc(C(F)(F)F)cn4C(C)C)cc3)c2n1 + Cc1cnc(CNC(=O)c2c(=O)c3ccc(N4CCCN(C)CC4)nc3n3c2sc2ccccc23)cn1 , state whether its pIC50 is at least 6.
Result: condition not met

Request: Confirm if pIC50 reported for the compound CC(C)n1c(=O)n(C)c2cnc3cc(F)c(-c4ccc(OCCCN5CCCCC5)nc4)cc3c21 + CN(C)c1ccc(Nc2c3ccc(NC(=O)CCN4CCCC4)cc3nc3cc(NC(=O)CCN4CCCC4)ccc23)cc1 is 6 or above.
Result: condition not met

Request: Identify whether the reported pIC50 of the following compound is 6 or greater: CC1COCCN1c1cc(C2(S(C)(=N)=O)CC2)nc(-c2ccnc3[nH]ccc23)n1 (stereo unspecified) + CN(C)c1ccc(Nc2c3ccc(NC(=O)CCN4CCCC4)cc3nc3cc(NC(=O)CCN4CCCC4)ccc23)cc1
Result: condition not met

Request: Answer whether pIC50 of COc1ccc([C@@H](O)c2cc(-c3ncnc4cc(N5CCOCC5)ccc34)c(F)cc2Cl)nn1 + Cc1[nH]c2ccc(F)cc2c1-c1nc2c3cccnc3c3ncccc3c2[nH]1 is greater than or equal to 6.
Result: condition not met
